Hello, the source for this data is patent US20260092061A1, in case you need it.

- STUDY_TARGET: BRD9 (Homo sapiens)
- Sequence (Q9H8M2 whole entry): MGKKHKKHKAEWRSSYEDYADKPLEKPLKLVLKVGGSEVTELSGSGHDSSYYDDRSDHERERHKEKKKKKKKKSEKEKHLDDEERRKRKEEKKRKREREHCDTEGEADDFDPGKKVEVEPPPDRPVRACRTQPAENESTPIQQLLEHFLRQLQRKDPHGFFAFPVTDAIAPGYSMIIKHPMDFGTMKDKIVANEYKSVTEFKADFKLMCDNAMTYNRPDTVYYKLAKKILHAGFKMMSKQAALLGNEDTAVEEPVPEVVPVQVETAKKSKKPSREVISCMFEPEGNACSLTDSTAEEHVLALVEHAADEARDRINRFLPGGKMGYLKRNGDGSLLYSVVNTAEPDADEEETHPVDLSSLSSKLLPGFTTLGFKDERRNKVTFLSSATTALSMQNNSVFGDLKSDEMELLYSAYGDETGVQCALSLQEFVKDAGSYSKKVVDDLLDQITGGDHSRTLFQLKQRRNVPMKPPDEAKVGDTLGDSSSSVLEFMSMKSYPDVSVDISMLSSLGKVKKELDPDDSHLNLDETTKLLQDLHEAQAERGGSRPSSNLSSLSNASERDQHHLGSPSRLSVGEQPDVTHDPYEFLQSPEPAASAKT
- PROCEDURE_DETAILS: Degradation of BRD9 (IF), immunofluorescence in MV4-11 cells, 24 hours (Assay Protocol 2)
- Type: cell-based
- Set-up: A suspension of MV4-11 cells (ATCC CRL-9591) was prepared; host or cells: MV4-11
- CONDITIONS: MV4-11, 24 h, Table 2; BRD9 degradation (IF), Assay Protocol 2, MV4-11 cells; read-out: Assay 2 DCmax
- Description: Assay Protocol 2—Degradation of BRD9 (IF) A suspension of MV4-11 cells (ATCC CRL-9591) was prepared in phenol red-free assay media (IMDM Thermo Scientific 21056023+10% FBS ATCC 302025) and cells were seeded at 20,000 cells per well (45 μL) in sterile black poly-d-lysine coated 384 well plates (Greiner 781948). Compounds were prepared at 1000× final concentration in DMSO, diluted 1:100 in assay media, and 5 μL compound was added to each well of the cell plate. […]
Each entry below lists one item and its recorded Dmax value.

### Prompt Quick one: give measured Dmax for COc1cc(-c2cn(C)c(=O)c(C)c2C)cc(OC)c1CN1CCN(Cc2cccc3c2CCN(C(=O)/C(C#N)=C/C(C)(C)C)C3C)CC1 (mixture of isomers)
### Response 40 to 70%

### Prompt Quick one: give measured Dmax for COc1cc(-c2cn(C)c(=O)c3cnccc23)cc(OC)c1CN(C)CCN(C)Cc1cccc2c1CCN(C(=O)/C(C#N)=C/C(C)(C)C)C2C (mixture of isomers)
### Response 40 to 70%

### Prompt Quick one: give measured Dmax for COc1cc(-c2cn(C)c(=O)c(C)c2C)cc(OC)c1CN1CCCN(Cc2cccc3c2CCN(C(=O)/C(C#N)=C/C2(F)CC2)C3C)CC1 (single isomer, unassigned)
### Response 40 to 70%

### Prompt Quick one: give measured Dmax for COc1cc(-c2cn(C)c(=O)c3cnccc23)cc(OC)c1CN1CCN(Cc2cccc3c2CCN(C(=O)/C(C#N)=C/c2nccs2)C3C)CC1 (mixture of isomers)
### Response 40 to 70%

### Prompt Quick one: give measured Dmax for COc1cccc(/C=C(\C#N)C(=O)N2CCc3c(CN4CCN(Cc5c(OC)cc(-c6cn(C)c(=O)c(C)c6C)cc5OC)CC4)cccc3C2C)n1 (mixture of isomers)
### Response 40 to 70%

### Prompt Quick one: give measured Dmax for COc1cc(-c2cn(C)c(=O)c3cc(C(=O)NCCCCCOc4ccc5c(c4)CCN(C(=O)/C(C#N)=C/c4nccs4)C5C)sc23)cc(OC)c1CN(C)C (mixture of isomers)
### Response > 75%

Further cases:
### Prompt Quick one: give measured Dmax for COc1cc(-c2cn(C)c(=O)c(C)c2C)cc(OC)c1CN1CC2CC(C1)N2Cc1cccc2c1CCN(C(=O)/C(C#N)=C/C(C)(C)C)C2C (mixture of isomers)
### Response > 75%

### Prompt Quick one: give measured Dmax for COc1cc(-c2cn(C)c(=O)c(C)c2C)cc(OC)c1CN1CC2CC1CN2Cc1cccc2c1CCN(C(=O)/C(C#N)=C/C(C)(C)C)C2C (mixture of isomers)
### Response 70 to 75%

### Prompt Quick one: give measured Dmax for COc1cc(-c2cn(C)c(=O)c3cnccc23)cc(OC)c1CN1CCN(Cc2cccc3c2CCN(C(=O)/C(C#N)=C/C(C)(C)C)[C@@H]3C)CC1 (single isomer, unassigned)
### Response 40 to 70%
